Biological target: αvβ1 (Homo sapiens, UniProt P05556+P06756)
Sequence (P06756 31-992 limits assumed): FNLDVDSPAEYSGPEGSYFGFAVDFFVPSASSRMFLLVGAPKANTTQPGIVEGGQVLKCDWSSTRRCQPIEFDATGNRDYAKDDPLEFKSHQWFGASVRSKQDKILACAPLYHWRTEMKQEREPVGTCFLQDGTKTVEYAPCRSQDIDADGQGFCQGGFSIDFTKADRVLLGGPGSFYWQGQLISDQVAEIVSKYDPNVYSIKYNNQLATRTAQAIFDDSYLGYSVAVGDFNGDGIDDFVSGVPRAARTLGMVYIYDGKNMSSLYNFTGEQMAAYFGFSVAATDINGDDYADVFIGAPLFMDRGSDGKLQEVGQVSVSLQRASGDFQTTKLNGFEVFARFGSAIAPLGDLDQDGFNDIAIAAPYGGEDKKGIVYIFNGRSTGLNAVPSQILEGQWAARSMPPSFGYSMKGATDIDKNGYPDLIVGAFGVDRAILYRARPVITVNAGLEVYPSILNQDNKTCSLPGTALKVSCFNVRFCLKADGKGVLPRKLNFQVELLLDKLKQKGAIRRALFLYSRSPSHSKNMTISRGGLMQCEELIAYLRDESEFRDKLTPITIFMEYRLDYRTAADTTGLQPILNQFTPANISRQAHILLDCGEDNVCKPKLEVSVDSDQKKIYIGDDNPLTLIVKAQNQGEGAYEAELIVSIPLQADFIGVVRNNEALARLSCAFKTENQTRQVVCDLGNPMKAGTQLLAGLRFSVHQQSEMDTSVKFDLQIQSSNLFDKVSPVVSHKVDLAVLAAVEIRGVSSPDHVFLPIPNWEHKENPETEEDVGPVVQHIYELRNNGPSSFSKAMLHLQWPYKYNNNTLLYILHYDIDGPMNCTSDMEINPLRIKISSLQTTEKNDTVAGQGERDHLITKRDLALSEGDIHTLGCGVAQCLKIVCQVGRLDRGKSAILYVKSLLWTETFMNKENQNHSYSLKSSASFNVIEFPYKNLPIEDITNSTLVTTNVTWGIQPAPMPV
Sequence (P05556 21-728 limits assumed): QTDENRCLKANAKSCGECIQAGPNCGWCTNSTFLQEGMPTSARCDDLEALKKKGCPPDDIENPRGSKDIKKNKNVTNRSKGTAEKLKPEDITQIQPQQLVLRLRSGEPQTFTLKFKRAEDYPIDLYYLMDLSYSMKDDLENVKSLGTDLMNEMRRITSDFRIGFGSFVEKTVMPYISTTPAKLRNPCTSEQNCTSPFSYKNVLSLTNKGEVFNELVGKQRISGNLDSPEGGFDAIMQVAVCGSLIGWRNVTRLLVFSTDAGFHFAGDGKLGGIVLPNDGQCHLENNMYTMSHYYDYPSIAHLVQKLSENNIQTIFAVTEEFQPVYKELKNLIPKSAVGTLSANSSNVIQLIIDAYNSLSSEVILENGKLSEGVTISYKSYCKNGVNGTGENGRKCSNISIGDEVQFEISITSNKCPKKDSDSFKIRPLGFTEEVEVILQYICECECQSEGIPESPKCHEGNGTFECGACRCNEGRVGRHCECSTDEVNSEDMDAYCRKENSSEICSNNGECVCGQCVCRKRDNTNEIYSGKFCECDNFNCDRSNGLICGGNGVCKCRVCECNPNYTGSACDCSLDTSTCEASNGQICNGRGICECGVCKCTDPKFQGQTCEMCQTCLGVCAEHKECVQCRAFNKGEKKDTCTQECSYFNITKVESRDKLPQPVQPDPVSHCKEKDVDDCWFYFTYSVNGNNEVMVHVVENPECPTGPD
Assay: Solid Phase Integrin αvβ1 Assay
Counter-ions that a name gives are not always drawn.

COMPOUND	ASSAY_SYSTEM	IC50
O=C(N[C@@H](CNC(=O)[C@@H]1CCCN(CCCc2ccc3c(n2)NCCC3)C1)C(=O)O)c1ccc(C2CC2)cc1 [Compound 369]	αvβ1 (Homo sapiens, UniProt P05556+P06756)	< 0.1 µM
O=C(O)[C@H](CO[C@@H]1CCCN(CCCCc2ccc3c(n2)NCCC3)C1)c1ccccc1 [Compound 395]	αvβ1 (Homo sapiens, UniProt P05556+P06756)	> 1 µM
O=C(O)[C@@H](CCO[C@@H]1CCCN(Cc2ccc3c(n2)NCCC3)C1)NC(=O)C12CCC(CC1)CC2 [Compound 381]	αvβ1 (Homo sapiens, UniProt P05556+P06756)	< 0.1 µM
O=C(NC[C@@H](Nc1cccnc1C1CC(F)(F)C1)C(=O)O)[C@@H]1CCCN(CCCc2ccc3c(n2)NCCC3)C1 [Compound 593]	αvβ1 (Homo sapiens, UniProt P05556+P06756)	< 0.1 µM
O=C(O)[C@H](CO[C@@H]1CCCN(CCCc2ccc3c(n2)NCCC3)C1)NC(=O)C12CCC(CC1)CC2 [Compound 400]	αvβ1 (Homo sapiens, UniProt P05556+P06756)	< 0.1 µM
O=C(NC[C@H](C(=O)O)c1cccc2cn([C@@H]3CCC(F)(F)C3)nc12)[C@@H]1CCCN(CCCc2ccc3c(n2)NCCC3)C1 [Compound 623]	αvβ1 (Homo sapiens, UniProt P05556+P06756)	< 0.1 µM
O=C(O)C[C@H](NC(=O)[C@@H]1CCCN(CCCc2ccc3c(n2)NCCC3)C1)c1cccc2c1CCCO2 [Compound 216-A]	αvβ1 (Homo sapiens, UniProt P05556+P06756)	0.1 to 1 µM
CC1(C)CCN(c2cccc([C@@H](CO[C@@H]3CCCN(CCCc4ccc5c(n4)NCCC5)C3)CC(=O)O)c2)CC1 [Compound 571]	αvβ1 (Homo sapiens, UniProt P05556+P06756)	< 0.1 µM
O=C(NC[C@H](C(=O)O)c1cccc2cnn([C@H]3CCOC3)c12)[C@@H]1CCCN(CCCc2ccc3c(n2)NCCC3)C1 [Compound 321]	αvβ1 (Homo sapiens, UniProt P05556+P06756)	< 0.1 µM
O=C(O)C[C@H](NC(=O)[C@@H]1CCCN(C(=O)CCc2ccc3c(n2)NCCC3)C1)c1ccccc1 [Compound 289, hydrochloride]	αvβ1 (Homo sapiens, UniProt P05556+P06756)	0.1 to 1 µM
C[C@@H]1C[C@H](C(=O)NC[C@@H](C(=O)O)c2cccc(-c3ccccc3)c2)CN(CCCc2ccc3c(n2)NCCC3)C1 [Compound 642]	αvβ1 (Homo sapiens, UniProt P05556+P06756)	> 1 µM

----------
Target: αvβ6 (Homo sapiens, UniProt P06756+P18564)
Sequence (P06756 31-992 limits assumed): as the sequence (P06756 31-992 limits assumed) above
Sequence (P18564 22-707 limits assumed): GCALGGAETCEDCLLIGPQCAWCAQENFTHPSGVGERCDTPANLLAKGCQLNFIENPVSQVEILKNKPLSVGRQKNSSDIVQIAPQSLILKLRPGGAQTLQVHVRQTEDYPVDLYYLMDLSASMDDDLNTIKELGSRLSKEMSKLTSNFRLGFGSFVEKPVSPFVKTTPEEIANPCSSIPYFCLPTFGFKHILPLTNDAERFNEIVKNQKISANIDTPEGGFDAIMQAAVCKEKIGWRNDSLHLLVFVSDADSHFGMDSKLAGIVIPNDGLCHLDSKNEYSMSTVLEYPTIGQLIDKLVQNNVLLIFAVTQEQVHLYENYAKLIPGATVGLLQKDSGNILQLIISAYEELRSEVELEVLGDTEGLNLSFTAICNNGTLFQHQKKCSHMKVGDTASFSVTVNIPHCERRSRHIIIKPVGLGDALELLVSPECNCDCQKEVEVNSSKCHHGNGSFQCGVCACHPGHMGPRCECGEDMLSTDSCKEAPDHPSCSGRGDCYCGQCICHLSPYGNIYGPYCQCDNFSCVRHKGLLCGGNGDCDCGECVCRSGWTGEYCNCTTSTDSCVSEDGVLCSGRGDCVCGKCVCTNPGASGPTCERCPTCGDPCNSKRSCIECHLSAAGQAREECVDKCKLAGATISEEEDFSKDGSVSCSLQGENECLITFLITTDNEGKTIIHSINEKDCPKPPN
Assay: Solid Phase Integrin αvβ6 Assay
Measured IC50 by item

MOLECULE	IC50
O=C(NC[C@H](NC(=O)C12CCC(CC1)CC2)C(=O)O)[C@@H]1CCCN(CCCc2ccc3c(n2)NCCC3)C1	< 100 nM
O=C(NC1([C@H](C(=O)O)c2cccc(-c3ccccc3)c2)CC1)[C@@H]1CCCN(CCCc2ccc3c(n2)NCCC3)C1	> 1000 nM
C[C@@H]1CN(c2cccc([C@H](CC(=O)O)NC(=O)[C@@H]3CCCN(CCCc4ccc5c(n4)NCCC5)C3)c2)C[C@H](C)O1 [Compound 617]	< 100 nM
O=C(NC[C@H](C(=O)O)c1cccc(C(F)(F)F)c1)[C@@H]1CCCN(CCCc2ccc3c(n2)NCCC3)C1	< 100 nM
O=C(O)C[C@H](NC(=O)[C@@H]1CCCN(CCCc2ccc3c(n2)NCCC3)C1)c1ccc2c(c1)CCCC2	< 100 nM

----------
Biological target: αvβ6 (Homo sapiens, UniProt P06756+P18564)
Assay: Solid Phase Integrin αvβ6 Assay
Method: The compounds exemplified in this document were tested for their ability to inhibit αvβ1 and αvβ6 in below described solid phase integrin assays. Solid Phase Integrin αvβ6 Assay 96-well microtiter plates (4 HBX Immulon; Thermo Fisher Scientific, Waltham, MA) were coated with 100 μL/well of 1 μg/mL recombinant TGFb1-LAP in TBS at 4° C., overnight. […] Bound protein was detected using the substrate TMB. […]
pIC50: −log10 of the molar value. Structures can show the parent of a compound that is named as a salt.
Measured pIC50 by item

COMPOUND	pIC50
O=C(O)C[C@H](NC(=O)[C@@H]1CCCN(CCCc2ccc3c(n2)NCCC3)C1)c1cccc([C@H]2CCOC2)c1 [Compound 534]	> 7.00
C[C@@H]1CN(c2cccc([C@H](CC(=O)O)NC(=O)[C@@H]3CCCN(CCCc4ccc5c(n4)NCCC5)C3)c2)C[C@@H](C)O1 [Compound 618]	> 7.00
O=C(NC[C@H](C(=O)O)c1cccc2c1CCCC2)[C@@H]1CCCN(CCCc2ccc3c(n2)NCCC3)C1 [Compound 253-A]	> 7.00
O=C(O)C[C@H](O[C@@H]1CCCN(CCCCc2ccc3c(n2)NCCC3)C1)c1ccccc1 [Compound 393]	< 6.00
O=C(O)CC(NC(=O)[C@@H]1CCCN(CCCc2ccc3c(n2)NCCC3)C1)c1cccc2c1OCO2 (stereo partly drawn) [Compound 218, hydrochloride]	> 7.00
O=C(O)C[C@H](NC[C@@H]1CCCN(CCCc2ccc3c(n2)NCCC3)C1)c1cccc(C2CC2)c1 [Compound 529]	6.00 to 7.00
CC1(C)CN(c2cccc([C@@H](CNC(=O)[C@@H]3CCCN(CCCc4ccc5c(n4)NCCC5)C3)C(=O)O)c2)CCO1 [Compound 595]	> 7.00
Cc1cc(C)n(-c2cccc([C@H](CO[C@@H]3CCCN(CCCc4ccc5c(n4)NCCC5)C3)CC(=O)O)c2)n1 [Compound 575]	> 7.00
O=C(O)C[C@@H](NC(=O)[C@@H]1CCCN(CCCc2ccc3c(n2)NCCC3)C1)c1cnc2ccccc2n1 [Compound 374]	> 7.00

----------
Target: αvβ6 (Homo sapiens, UniProt P06756+P18564)
Assay: Solid Phase Integrin αvβ6 Assay
pIC50: −log10 of the molar value. Structures can show the parent of a compound that is named as a salt.

MOLECULE	pIC50
O=C(O)C[C@@H](NC(=O)[C@@H]1CCCN(CCCc2ccc3c(n2)NCCC3)C1)c1ccc2ccccc2c1 [Compound 206, hydrochloride]	> 7.00
O=C(NC[C@H](Nc1ncc(C(F)(F)F)cn1)C(=O)O)[C@@H]1CCCN(CCCc2ccc3c(n2)NCCC3)C1 [Compound 451]	> 7.00
C[C@H]1C[C@H](C(=O)N[C@@H](CC(=O)O)c2ccccc2)CN(CCCc2ccc3c(n2)NCCC3)C1 [Compound 380]	> 7.00
O=C(O)C[C@H](CO[C@@H]1CCCN(CCCc2ccc3c(n2)NCCC3)C1)c1cccc(-n2cccn2)c1 [Compound 492]	> 7.00
O=C(O)C[C@H](NC(=O)[C@@H]1CCCN(CCCc2ccc3c(n2)NCCC3)C1)c1cccc2c1CCO2 [Compound 615]	> 7.00
O=C(NC[C@H](C(=O)O)c1cc(F)cc(-c2cccc(F)c2)c1)[C@@H]1CCCN(CCCc2ccc3c(n2)NCCC3)C1 [Compound 629]	6.00 to 7.00

----------
Measured pIC50 by item
Target: αvβ6 (Homo sapiens, UniProt P06756+P18564)
Assay: Solid Phase Integrin αvβ6 Assay
pIC50: −log10 of the molar value.
ASSAY_METRIC: pIC50

MOLECULE	ASSAY_METRIC	ENDPOINT_RESULT
C[C@H]1CN(c2cccc([C@H](CNC(=O)[C@@H]3CCCN(CCCc4ccc5c(n4)NCCC5)C3)C(=O)O)c2)C[C@H](C)O1	pIC50	> 7.00
O=C(O)[C@@H](CCO[C@H]1CCCN(CCCc2ccc3c(n2)NCCC3)C1)Nc1ncnc2ccccc12	pIC50	< 6.00
O=C(CC[C@H](NC(=O)[C@@H]1CCCN1S(=O)(=O)c1ccccc1)C(=O)O)N[C@H]1CCN(CCCCc2ccc3c(n2)NCCC3)C1	pIC50	6.00 to 7.00
CO[C@H]1CCN(C(=O)[C@@H]2CCCC[C@H]2C(=O)N[C@@H](CNC(=O)[C@@H]2CCCN(CCCc3ccc4c(n3)NCCC4)C2)C(=O)O)C1	pIC50	> 7.00
O=C(NC[C@H](C(=O)O)c1cccc(C2CC2)c1)[C@@H]1CCCN(CCCc2ccc3c(n2)NCCC3)C1	pIC50	6.00 to 7.00
Cc1c[s+]([O-])c2ncnc(N[C@@H](CCO[C@@H]3CCCN(CCCc4ccc5c(n4)NCCC5)C3)C(=O)O)c12 (stereo partly drawn)	pIC50	> 7.00
